Target: recombinant human ETB R (Homo sapiens)
Sequence (P24530 27-442): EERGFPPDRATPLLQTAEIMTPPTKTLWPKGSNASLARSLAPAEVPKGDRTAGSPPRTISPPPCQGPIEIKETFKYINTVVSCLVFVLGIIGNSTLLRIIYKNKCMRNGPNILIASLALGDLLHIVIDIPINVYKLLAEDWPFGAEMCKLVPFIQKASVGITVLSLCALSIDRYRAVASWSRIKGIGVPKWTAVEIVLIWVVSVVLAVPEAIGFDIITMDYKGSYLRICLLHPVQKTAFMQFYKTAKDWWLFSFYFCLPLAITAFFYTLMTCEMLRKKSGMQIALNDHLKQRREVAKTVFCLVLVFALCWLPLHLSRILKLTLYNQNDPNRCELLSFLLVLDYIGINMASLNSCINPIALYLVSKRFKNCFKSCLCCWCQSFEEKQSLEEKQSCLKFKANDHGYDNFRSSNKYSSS
Settings: [125I]-ET-1 40 pM, 2 hours at 37° C.; read-out: HERBAB IC50
attribute-measured: IC50 (µM)
One number for each entry, in µM.

- structure-string: "O=C(O)C1=C(c2ccc3c(c2)OCO3)c2ccccc2S(=O)(=O)N1Cc1ccc2c(c1)OCO2"
  IC50 (µM): 3.1
- structure-string: "COc1ccc(CN2C(C(=O)O)=C(Sc3ccc4c(c3)OCO4)c3ccccc3S2(=O)=O)cc1"
  IC50 (µM): 2.3

Inquiry: Give the measured IC50 of COc1ccc(SC2=C(C(=O)O)N(Cc3ccc4c(c3)OCO4)S(=O)(=O)c3ccccc32)cc1OC .
Reply text: 8.2

====

Task for the reader: assign each of the following compounds its reported IC50.
Target: recombinant human ETA R (Homo sapiens)
Settings: [125I]-ET-1 40 pM, 2 hours at 37° C.; read-out: HERBAA IC50
Numbers only, in µM.

Some compounds with known IC50 results, for comparison:
- structure-string: "O=C(O)C1=C(Sc2ccc3c(c2)OCO3)c2ccccc2S(=O)(=O)N1Cc1ccc2c(c1)OCO2"
  value-reported: 0.066
- structure-string: "COc1ccc(SC2=C(C(=O)O)N(Cc3ccc4c(c3)OCO4)S(=O)(=O)c3ccccc32)cc1OC"
  value-reported: 0.23
- structure-string: "COc1cc2c(cc1OC)S(=O)(=O)N(Cc1ccc3c(c1)OCO3)C(C(=O)O)=C2Sc1ccc2c(c1)OCO2"
  value-reported: 0.3

Consider the additional compound presented here.
Inquiry: Give the measured IC50 of COc1cc(CN2C(C(=O)O)=C(Sc3ccc4c(c3)OCO4)c3ccccc3S2(=O)=O)cc(OC)c1OC .
Reply text: 0.2

====

Molecular target: ETA (Oryctolagus cuniculus, UniProt A5A8K3)
Construct: cultured rabbit renal artery vascular smooth muscle cells; endogenous in cells
Sequence (A5A8K3 21-427): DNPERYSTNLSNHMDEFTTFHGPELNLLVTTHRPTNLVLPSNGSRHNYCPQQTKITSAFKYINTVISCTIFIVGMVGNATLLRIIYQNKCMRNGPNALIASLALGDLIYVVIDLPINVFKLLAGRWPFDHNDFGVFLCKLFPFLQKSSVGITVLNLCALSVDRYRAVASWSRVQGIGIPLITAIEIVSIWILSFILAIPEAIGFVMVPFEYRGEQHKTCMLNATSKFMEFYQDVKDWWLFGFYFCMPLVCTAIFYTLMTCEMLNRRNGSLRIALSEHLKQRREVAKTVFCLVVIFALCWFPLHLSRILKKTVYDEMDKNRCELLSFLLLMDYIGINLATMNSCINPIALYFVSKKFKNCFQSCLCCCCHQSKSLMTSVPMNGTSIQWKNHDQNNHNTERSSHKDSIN
Experiment: AAR: inhibition of ET-1 stimulated arachidonic acid release in cultured rabbit renal artery vascular smooth muscle cells
Conditions: 0.3 nM ET-1, 30 minutes
attribute-measured: pIC50
Answers are plain numbers, as −log10 of the molar value.

- structure-string: "O=C(O)C1=C(c2ccc3c(c2)OCO3)c2ccccc2S(=O)(=O)N1Cc1cc2c(cc1Cl)OCO2"
  pIC50: 5.89

Consider the additional compound presented here.
Inquiry: Give the measured pIC50 of O=C(O)C1=C(Sc2ccc3c(c2)OCO3)c2ccccc2S(=O)(=O)N1Cc1ccc2c(c1)OCO2 .
Reply text: 5.92

====

Biological target: recombinant human ETA R (Homo sapiens, UniProt P25101)
Sequence (P25101 21-427): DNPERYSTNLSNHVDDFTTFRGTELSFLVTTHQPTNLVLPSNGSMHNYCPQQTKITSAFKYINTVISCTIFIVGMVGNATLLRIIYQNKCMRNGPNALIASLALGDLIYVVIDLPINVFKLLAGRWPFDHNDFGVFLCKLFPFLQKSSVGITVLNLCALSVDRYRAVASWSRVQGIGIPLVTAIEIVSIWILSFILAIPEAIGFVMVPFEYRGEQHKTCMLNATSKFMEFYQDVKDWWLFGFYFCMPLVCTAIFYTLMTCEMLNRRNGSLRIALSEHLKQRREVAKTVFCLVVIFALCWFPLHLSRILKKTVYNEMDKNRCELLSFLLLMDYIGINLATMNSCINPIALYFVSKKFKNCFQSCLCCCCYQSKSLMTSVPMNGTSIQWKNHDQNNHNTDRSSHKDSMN
Details: [125I]-ET-1 40 pM, 2 hours at 37° C.; read-out: HERBAA IC50
Heads up, the class ranges for IC50 are bin A (below 200 nM), bin B (200 nM to below 700 nM), bin C (700 nM or more)

Record excerpt, results attached:
- structure-string: "O=C(O)C1=C(c2ccc3c(c2)OCO3)c2ccccc2S(=O)(=O)N1Cc1ccccc1"
  class-assignment: "bin A"
- structure-string: "COc1cc(CN2C(C(=O)O)=C(c3ccc4c(c3)OCO4)c3ccccc3S2(=O)=O)cc2c1OCO2"
  class-assignment: "bin B"

Inquiry: Textbook exercise: identify the category of the compound given here, O=C(O)C1=C(Sc2ccc3c(c2)OCO3)c2ccccc2S(=O)(=O)N1Cc1ccccc1 , according to its measured value.
Reply text: bin A

Inquiry: Textbook exercise: identify the category of the compound given here, O=C(O)C1=C(c2ccc3c(c2)OCO3)c2ccccc2S(=O)(=O)N1Cc1cc2c(cc1Cl)OCO2 , according to its measured value.
Reply text: bin A

Inquiry: Textbook exercise: identify the category of the compound given here, COc1ccc(CN2C(C(=O)O)=C(Sc3ccc4c(c3)OCO4)c3ccccc3S2(=O)=O)cc1 , according to its measured value.
Reply text: bin B

Inquiry: Textbook exercise: identify the category of the compound given here, O=C(O)C1=C(Sc2ccc3c(c2)OCO3)c2ccccc2S(=O)(=O)N1Cc1cc2c(cc1Cl)OCO2 , according to its measured value.
Reply text: bin B

Inquiry: Textbook exercise: identify the category of the compound given here, CN1C(C(=O)O)=C(Sc2ccc3c(c2)OCO3)c2ccccc2S1(=O)=O , according to its measured value.
Reply text: bin A

Inquiry: Textbook exercise: identify the category of the compound given here, COc1cc(C2=C(C(=O)O)N(Cc3ccc4c(c3)OCO4)S(=O)(=O)c3ccccc32)cc(OC)c1OC , according to its measured value.
Reply text: bin C

Inquiry: Textbook exercise: identify the category of the compound given here, CN1C(C(=O)O)=C(c2ccc3c(c2)OCO3)c2ccccc2S1(=O)=O , according to its measured value.
Reply text: bin C

Inquiry: Textbook exercise: identify the category of the compound given here, COc1cccc(SC2=C(C(=O)O)N(Cc3ccc4c(c3)OCO4)S(=O)(=O)c3ccccc32)c1 , according to its measured value.
Reply text: bin B

Inquiry: Textbook exercise: identify the category of the compound given here, COc1cc(CN2C(C(=O)O)=C(c3ccc4c(c3)OCO4)c3ccccc3S2(=O)=O)cc(OC)c1OC , according to its measured value.
Reply text: bin A

Inquiry: Textbook exercise: identify the category of the compound given here, O=C(NS(=O)(=O)c1ccccc1)C1=C(c2ccc3c(c2)OCO3)c2ccccc2S(=O)(=O)N1Cc1ccc2c(c1)OCO2 , according to its measured value.
Reply text: bin C

Inquiry: Textbook exercise: identify the category of the compound given here, COc1ccc(CN2C(C(=O)O)=C(c3ccc4c(c3)OCO4)c3ccccc3S2(=O)=O)c(OCC(=O)O)c1 , according to its measured value.
Reply text: bin C

Inquiry: Textbook exercise: identify the category of the compound given here, O=C(O)C1=C(c2ccc3c(c2)OCO3)c2ccccc2S(=O)(=O)N1Cc1ccc2c(c1)OCO2 , according to its measured value.
Reply text: bin B
